Hey, just so you know, these numbers are from paper PMC4406585.

# Target System: anti-GBB5-A1 scFv
# Sequence (chain, as listed by the source, chain 1 of 2): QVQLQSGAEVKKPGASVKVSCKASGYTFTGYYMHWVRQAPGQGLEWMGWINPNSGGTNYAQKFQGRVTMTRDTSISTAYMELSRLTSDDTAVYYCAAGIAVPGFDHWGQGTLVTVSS
# Sequence (chain, as listed by the source, chain 2 of 2): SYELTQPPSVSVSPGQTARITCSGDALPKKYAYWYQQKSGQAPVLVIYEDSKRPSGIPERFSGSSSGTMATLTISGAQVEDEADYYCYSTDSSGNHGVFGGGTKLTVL
# Procedure Details: ELISA
# Conditions: chain shown with the change; biotinylated peptides immobilized in streptavidin-coated microtiter plate wells; soluble scFv protein; parent: est. 100; read off a plot
Recorded Metric: percent of parent (% signal of wild type)

>  <Binder>
GSGSKLHDVELHQAAERV [GBB5 peptide (Guanine Nucleotide-Binding Protein Beta 5) V14A]

>  <Experimental Result>
51

$$$$
>  <Binder>
GSGSKLHDVELHQVAEAV [GBB5 peptide (Guanine Nucleotide-Binding Protein Beta 5) R13A]

>  <Experimental Result>
56

$$$$
>  <Binder>
GSGSALHDVELHQVAERV [GBB5 peptide (Guanine Nucleotide-Binding Protein Beta 5) K1A]

>  <Experimental Result>
0.2

$$$$
>  <Binder>
GSGSKLHAVELHQVAERV [GBB5 peptide (Guanine Nucleotide-Binding Protein Beta 5) D4A]

>  <Experimental Result>
0.3

$$$$
